Test system: HCC-44
assay.explanation: relative viability (nuclei count vs DMSO), 5 days (fraction); higher = more cells survive
experimental.setup: first compound 0.253 µM
attribute.measured: relative viability
I only need the number, thanks.

See these solved cases before continuing.
Challenge: // query relative viability value for entry COc1nc(C)cnc1NS(=O)(=O)c1cccnc1-c1ccc(-c2nnco2)cc1 [Zibotentan] + CC(=O)Nc1cccc(-n2c(=O)n(C3CC3)c(=O)c3c(Nc4ccc(I)cc4F)n(C)c(=O)c(C)c32)c1 [Trametinib] (partner 0.02 µM)
Response given: 1

Challenge: // query relative viability value for entry O=c1cc(-c2cccc3c2Sc2ccccc2S3)oc(N2CCOCC2)c1 + CC(=O)Nc1cccc(-n2c(=O)n(C3CC3)c(=O)c3c(Nc4ccc(I)cc4F)n(C)c(=O)c(C)c32)c1 [Trametinib] (partner 0.02 µM)
Response given: 1.01

Please examine the following record next.
Challenge: // query relative viability value for entry O=c1cc(-c2cccc3c2Sc2ccccc2S3)oc(N2CCOCC2)c1 + CCNC(=O)c1noc(-c2cc(C(C)C)c(O)cc2O)c1-c1ccc(CN2CCOCC2)cc1 [Luminespib] (partner 0.01 µM)
Response given: 0.971

* * *

System: NCI-H2342
assay.explanation: relative viability (nuclei count vs DMSO), 5 days (fraction); higher = more cells survive
experimental.setup: first compound 0.3162 µM
Recorded relative viability for the following compounds
I only need the number, thanks.

See these solved cases before continuing.
Challenge: Please provide the recorded relative viability for O=c1cc(N2CCOCC2)oc2c(-c3cccc4c3sc3ccccc34)cccc12 + O=C(CCCCCCC(=O)Nc1ccccc1)NO [Vorinostat] (partner 1 µM) , tested on NCI-H2342.
Response given: 0.729

Challenge: Please provide the recorded relative viability for O=c1cc(N2CCOCC2)oc2c(-c3cccc4c3sc3ccccc34)cccc12 + CC(=O)c1c(C)c2cnc(Nc3ccc(N4CCNCC4)cn3)nc2n(C2CCCC2)c1=O [Palbociclib] (partner 0.5 µM) , tested on NCI-H2342.
Response given: 0.529

Please examine the following record next.
Challenge: Please provide the recorded relative viability for O=c1cc(N2CCOCC2)oc2c(-c3cccc4c3sc3ccccc34)cccc12 + COc1cc2c(Oc3ccc(NC(=O)C4(C(=O)Nc5ccc(F)cc5)CC4)cc3F)ccnc2cc1OCCCN1CCOCC1 [Foretinib] (partner 0.25 µM) , tested on NCI-H2342.
Response given: 1.04

* * *

Tested on: NCI-H1437
assay.explanation: relative viability (nuclei count vs DMSO), 5 days (fraction); higher = more cells survive
experimental.setup: first compound 0.01 µM
attribute.measured: relative viability
I only need the number, thanks.

Challenge: // query relative viability value for entry O=c1cc(N2CCOCC2)oc2c(-c3cccc4c3sc3ccccc34)cccc12 + CCNC(=O)c1noc(-c2cc(C(C)C)c(O)cc2O)c1-c1ccc(CN2CCOCC2)cc1 [Luminespib] (partner 0.01 µM)
Response given: 0.835

Challenge: // query relative viability value for entry CCN(CC)CCCCNc1ncc2cc(-c3cc(OC)cc(OC)c3)c(NC(=O)NC(C)(C)C)nc2n1 + O=C(c1cc(Cc2n[nH]c(=O)c3ccccc23)ccc1F)N1CCN(C(=O)C2CC2)CC1 [Olaparib] (partner 8 µM)
Response given: 0.635

Challenge: // query relative viability value for entry CCN(CC)CCCCNc1ncc2cc(-c3cc(OC)cc(OC)c3)c(NC(=O)NC(C)(C)C)nc2n1 + Cc1nc(NC(=O)N2CCC[C@H]2C(N)=O)sc1-c1ccnc(C(C)(C)C(F)(F)F)c1 [Alpelisib] (partner 2 µM)
Response given: 1.23

Next:
Challenge: // query relative viability value for entry O=c1cc(N2CCOCC2)oc2c(-c3cccc4c3sc3ccccc34)cccc12 + CS(=O)(=O)N1CCN(Cc2cc3nc(-c4cccc5[nH]ncc45)nc(N4CCOCC4)c3s2)CC1 [Pictilisib] (partner 1 µM)
Response given: 0.455

Challenge: // query relative viability value for entry O=c1cc(N2CCOCC2)oc2c(-c3cccc4c3sc3ccccc34)cccc12 + Cc1nc(NC(=O)N2CCC[C@H]2C(N)=O)sc1-c1ccnc(C(C)(C)C(F)(F)F)c1 [Alpelisib] (partner 2 µM)
Response given: 0.931

* * *

Test system: HCC-44
assay.explanation: relative viability (nuclei count vs DMSO), 5 days (fraction); higher = more cells survive
experimental.setup: first compound 2.53 µM
attribute.measured: relative viability

Challenge: // query relative viability value for entry O=c1cc(-c2cccc3c2Sc2ccccc2S3)oc(N2CCOCC2)c1 + CC(=O)Nc1cccc(-n2c(=O)n(C3CC3)c(=O)c3c(Nc4ccc(I)cc4F)n(C)c(=O)c(C)c32)c1 [Trametinib] (partner 0.02 µM)
Response given: 1.01

Challenge: // query relative viability value for entry O=c1cc(-c2cccc3c2Sc2ccccc2S3)oc(N2CCOCC2)c1 + NC(=O)Nc1cc(-c2cccc(F)c2)sc1C(=O)N[C@H]1CCCNC1 [AZD7762] (partner 0.2 µM)
Response given: 0.991

Next:
Challenge: // query relative viability value for entry COc1nc(C)cnc1NS(=O)(=O)c1cccnc1-c1ccc(-c2nnco2)cc1 [Zibotentan] + CC(=O)c1c(C)c2cnc(Nc3ccc(N4CCNCC4)cn3)nc2n(C2CCCC2)c1=O [Palbociclib] (partner 0.5 µM)
Response given: 1

* * *

Recorded relative viability for the following compounds
Test system: NCI-H2087
assay.explanation: relative viability (nuclei count vs DMSO), 5 days (fraction); higher = more cells survive
experimental.setup: first compound 0.3162 µM
I only need the number, thanks.

Challenge: // query relative viability value for entry O=c1cc(N2CCOCC2)oc2c(-c3cccc4c3sc3ccccc34)cccc12 + CS(=O)(=O)CCNCc1ccc(-c2ccc3ncnc(Nc4ccc(OCc5cccc(F)c5)c(Cl)c4)c3c2)o1 [Lapatinib] (partner 2 µM)
Response given: 0.938

Challenge: // query relative viability value for entry CCN(CC)CCCCNc1ncc2cc(-c3cc(OC)cc(OC)c3)c(NC(=O)NC(C)(C)C)nc2n1 + CCNC(=O)c1noc(-c2cc(C(C)C)c(O)cc2O)c1-c1ccc(CN2CCOCC2)cc1 [Luminespib] (partner 0.01 µM)
Response given: 0.177

Please examine the following record next.
Challenge: // query relative viability value for entry CCN(CC)CCCCNc1ncc2cc(-c3cc(OC)cc(OC)c3)c(NC(=O)NC(C)(C)C)nc2n1 + CC(=O)Nc1cccc(-n2c(=O)n(C3CC3)c(=O)c3c(Nc4ccc(I)cc4F)n(C)c(=O)c(C)c32)c1 [Trametinib] (partner 0.02 µM)
Response given: 0.189

* * *

Test system: NCI-H1666
assay.explanation: relative viability (nuclei count vs DMSO), 5 days (fraction); higher = more cells survive
experimental.setup: first compound 1 µM
attribute.measured: relative viability

Challenge: Please provide the recorded relative viability for CCN(CC)CCCCNc1ncc2cc(-c3cc(OC)cc(OC)c3)c(NC(=O)NC(C)(C)C)nc2n1 + O=C(c1cc(Cc2n[nH]c(=O)c3ccccc23)ccc1F)N1CCN(C(=O)C2CC2)CC1 [Olaparib] (partner 8 µM) , tested on NCI-H1666.
Response given: 0.719

Challenge: Please provide the recorded relative viability for O=c1cc(N2CCOCC2)oc2c(-c3cccc4c3sc3ccccc34)cccc12 + O=C(c1cc(Cc2n[nH]c(=O)c3ccccc23)ccc1F)N1CCN(C(=O)C2CC2)CC1 [Olaparib] (partner 8 µM) , tested on NCI-H1666.
Response given: 0.692

Please examine the following record next.
Challenge: Please provide the recorded relative viability for O=c1cc(N2CCOCC2)oc2c(-c3cccc4c3sc3ccccc34)cccc12 + NC(=O)Nc1cc(-c2cccc(F)c2)sc1C(=O)N[C@H]1CCCNC1 [AZD7762] (partner 0.2 µM) , tested on NCI-H1666.
Response given: 0.7
